Ref: the supplement of paper PMC12764529

Test: folding stability dG unfold from chymotrypsin proteolysis; higher = more stable
Exercise: for every item that follows, state its recorded folding stability dG unfold.
One number for each entry, in kcal/mol.

Example entries begin here.
MDVKIEPYRDPETGELYYKAVVKFKDGKEKLIEVKVPPNGKPIAKIYDPNGKLLAEKEFDSIEEALKEALAS [r1_478_TrMRF]
4.24
SAGGKEVKITFKAPKEEAVPKVKKAAEEYGVTVKSIDYDPETGKVTVVVDDSVPEEKVKEAFEKVLKSAGGS [r8_338_TrMRF]
1.75
SAGGSAGGSAGGKVLHVPYENIEEKIKEAEEKYPNKEILIHAYLPNGKLLKTIKIKVKKSAGGSAGGSAGGS [r10_741_TrMRF]
1.18

Could I get folding stability dG unfold for every one of these entries?
1. SAFRFPPGQTIMIKIEWRNPGNGKKRKWSIPIRVDPDKGRVITLDMLKSFLRKWGFNPEDVKIEDITVMSAG [r14_93_TrROS]
2. SAGGSAGGSAGGSILLITTHPKDAEKAAKEIEKILAELDIPPDAKIEVYVVPKEYLPDESAGGSAGGSAGGS [r4_472_TrMRF]
3. SAGGSAGGTISFPNATATITVEENSVTITVTNADGQPTTFTIPLPIPKAKPFTLPDGTKLYLIASAGGSAGG [r6_806_TrMRF]
4. SAGGSAGGSAGGPNWRIITHEIPIKDGEIEINLPEGIKPQSIERNPDDGYIKVSIVIPLSAGGSAGGSAGGS [r10_906_TrROS]
5. SAGGHTIMFPVKSPEQARDEIRDFARDQGLPIEPEDITIEQHEFKDPENGKKYRFFEITIDVTLKPPSAGGS [r16_587_TrROS]
6. SAPQIVEVKEYDPVSKTYTILAETPEGPLTVPVPAGGDTTVEEAIEQVKEYFEKTLPPGVELEIEKILLSAG [r14_422_JUSTAS]
7. SAGGSASMSKTTTETSPDSETTTTTYYPNGTVTTTKTTTVGEGTTTTTTTTKVLFIPGPGVLVPEPSAGGSA [r15_746_JUSTAS]
8. SAGGSASMVEEEVTLQKKVKSEEEALKFAEEVKESNPHVKTVEVSLEKLPDGSILVNVTIKRILKPSAGGSA [r15_726_JUSTAS]

### Response
1. 1.31
2. 0.176
3. 2.31
4. -0.259
5. 1.49
6. 0.271
7. 0.514
8. 3.31

Could I get folding stability dG unfold for every one of these entries?
1. SDPNKPWTAEEIAKIIEEKILEEFDVEEIIPKELKVFPKEGTVKVKMLVKYKGEPGKYFELEVEISPEELSA [r9_1002_TrMRF]
2. SAGGSAKNEYITVNITIIVYNPEDGKIEKIINLPIKVPKNLTKEQVINLAKKLLEEKGYEIAEIKGSAGGSA [r15_195_TrMRF]
3. SAGGSAGGSAGIKIVAPSPELADMIAKEIAKEFGLPGKIKDIEIEVIPYKPTPNGGYQPYSAGGSAGGSAGG [r17_237_TrROS]

### Response
2.9
3.24
-0.363

---

Experiment: folding stability dG unfold (combined trypsin and chymotrypsin); higher = more stable
readout: folding stability dG unfold (kcal/mol)
Numbers only, in kcal/mol.

SAGGSAGGSEKEIVLVVKSKEDALKAAEELAKALGLEVEVEVIEVKTLENGEKYVVVKITIKDSAGGSAGGS [r12_924_TrROS_Hall]
3.74
SAGGSAGGSALVRIEFPNGREIEIPNNMPYEQAKDVAVELAEEHGKNGRPFKVKIEEIKPPGSAGGSAGGSA [r18_213_TrROS]
-0.511
SAGGSAGGSAGGSWITFRIPEGNPEFIEELARGFGIKPKRINPNRGTITIKLPPGAKIVSAGGSAGGSAGGS [r4_3_TrROS]
0.641

Next sequence, please.
### Prompt What folding stability dG unfold value was documented for this sequence, SAGGSKLPPGQKVIEIEWKIPPGLKPGQPFKISDEFINKLAERHGNIHITNIQFTNSYMKWSIIIDSAGGSA [r2_383_TrROS] ?
### Response 2.11
